Let's look at some molecules and their measured IC50.
- Experiment notes: Cytotoxicity in T79-A3 (NR-positive) cell lines
Your answer should be a plain number; it is taken to be in µM.

Recall and state the measured IC50 for NC(=O)c1cc([N+](=O)[O-])cc([N+](=O)[O-])c1N(CCCl)CCCl .
7.5

Recall and state the measured IC50 for O=C(NCC(O)CO)c1cc([N+](=O)[O-])cc([N+](=O)[O-])c1N(CCI)CCI (stereo unspecified) .
4

Recall and state the measured IC50 for CS(=O)(=O)c1cc([N+](=O)[O-])c(C(N)=O)cc1N(CCCl)CCCl .
58

Recall and state the measured IC50 for CS(=O)(=O)CCN(CCS(C)(=O)=O)c1cc(C(N)=O)c([N+](=O)[O-])cc1[N+](=O)[O-] .
9.3

Recall and state the measured IC50 for NC(=O)c1cc(N2CC2)c([N+](=O)[O-])cc1[N+](=O)[O-] .
0.89

Recall and state the measured IC50 for NC(=O)c1cc(N(CCCl)CCCl)c([N+](=O)[O-])cc1[N+](=O)[O-] .
15

Recall and state the measured IC50 for NC(=O)c1cc([N+](=O)[O-])cc([N+](=O)[O-])c1N(CCBr)CCBr .
0.19

Recall and state the measured IC50 for NC(=O)c1cc([N+](=O)[O-])cc([N+](=O)[O-])c1N(CCI)CCI .
0.1

Recall and state the measured IC50 for CN(C)CCNC(=O)c1c([N+](=O)[O-])ccc(N(CCCl)CCCl)c1[N+](=O)[O-] .
895

Recall and state the measured IC50 for NC(=O)c1cc(N(CCBr)CCBr)c([N+](=O)[O-])cc1[N+](=O)[O-] .
0.25

Recall and state the measured IC50 for NC(=O)c1cc(N(CCI)CCI)c([N+](=O)[O-])cc1[N+](=O)[O-] .
0.23

Recall and state the measured IC50 for O=C(NCC(O)CO)c1cc(N(CCI)CCI)c([N+](=O)[O-])cc1[N+](=O)[O-] (stereo unspecified) .
1.9

Recall and state the measured IC50 for O=C(NCC(O)CO)c1cc([N+](=O)[O-])cc([N+](=O)[O-])c1N(CCCl)CCCl (stereo unspecified) .
13

Recall and state the measured IC50 for O=C(NCC(O)CO)c1cc(N(CCCl)CCCl)c([N+](=O)[O-])cc1[N+](=O)[O-] (stereo unspecified) .
89

Recall and state the measured IC50 for CS(=O)(=O)CCN(CCCl)c1cc(C(N)=O)c([N+](=O)[O-])cc1[N+](=O)[O-] .
3.4
